Read-out: Cytochrome P450 7A1 (Homo sapiens)
assay: LTEA_HepaRG_CYP7A1: Life Technologies and Expression Analysis (LTEA) Assay for Cytochrome P450 7A1 (CYP7A1) using HepaRG (AID 2283496)
setup.conditions: mRNA level, 48 h; actives raise or lower the signal
Activity calls are given as the source filed them. The calls were made as follows: active = hit-call score of the fitted dose curve at least 0.9, where 1 is the maximum; inactive = score below 0.9.
Outcomes: active, inactive

smiles.input: C[C@]12C=CC(=O)C=C1CC[C@H]1[C@@H]3C[C@@H](O)[C@](O)(C(=O)CO)[C@@]3(C)C[C@H](O)[C@@]12F
cat: inactive
--
smiles.input: COc1cc(C(C)C)c2c(c1)S(=O)(=O)N(COc1cc(=O)n3cccc(OCCN4CCCCC4)c3n1)C2=O
cat: active
--
smiles.input: CCOC(N)=O
cat: inactive

====

Read-out: UDP glucuronosyltransferase (UGT1A1), UGT1A1 (gene 54658)
assay: LTEA_HepaRG_UGT1A1: Life Technologies and Expression Analysis (LTEA) Assay for UDP glucuronosyltransferase (UGT1A1) using HepaRG (AID 2283538)
setup.conditions: mRNA level, 48 h; actives raise or lower the signal
The source made the active and inactive calls. The calls were made as follows: active = hit-call score of the fitted dose curve at least 0.9, where 1 is the maximum; inactive = score below 0.9.
Outcomes: 1.0 (active), 0.0 (inactive)

molecule: CCCCCCCCCC
cat: 0.0
--
molecule: Cn1cc[nH]c1=S
cat: 0.0
--
molecule: NC(=O)N1c2ccccc2C=Cc2ccccc21
cat: 1.0
--
molecule: COS(C)(=O)=O
cat: 0.0
--
molecule: CNC(C)=O
cat: 0.0
--
molecule: CCn1nc(C)c2c1C(=O)NCC(c1ccc(O)cc1)=N2
cat: 1.0
--
molecule: NNC(=O)c1ccncc1
cat: 0.0
--
molecule: Cc1ccc(S(=O)(=O)NC(=O)NN2CCCCCC2)cc1
cat: 0.0
--
molecule: CCCCCCOC(=O)CC(CC(=O)OCCCCCC)(OC(=O)CCC)C(=O)OCCCCCC
cat: 0.0
--
molecule: O=C1CN(N=Cc2ccc([N+](=O)[O-])o2)C(=O)N1
cat: 0.0
--
molecule: CC(C)C(=O)Nc1ccc([N+](=O)[O-])c(C(F)(F)F)c1
cat: 1.0
--
molecule: CCc1cccc(CC)c1N
cat: 0.0
--
molecule: c1ccc2c(c1)-c1cccc3c1c-2cc1ccccc13
cat: 0.0
--
molecule: Nc1ccn([C@@H]2O[C@H](CO)[C@@H](O)[C@@H]2O)c(=O)n1
cat: 0.0
--
molecule: CCCCCCCCCCCCCCCCOS(=O)(=O)O
cat: 0.0
--
molecule: CC[C@H](C)C(=O)O[C@H]1C[C@H](O)C=C2C=C[C@H](C)[C@H](CC[C@@H](O)C[C@@H](O)CC(=O)O)[C@H]21
cat: 0.0
--
molecule: c1ccc(C(O[C@@H]2CCCN(CCc3ccc4c(c3)OCO4)C2)c2ccccc2)cc1
cat: 1.0
--
molecule: CC(C)CC(C)O (centres undefined)
cat: 0.0
--
molecule: COCc1nnc(-c2ccc[n+]([O-])c2)n1-c1c(Cl)c(Cl)cc2[nH]c(=O)c(=O)[nH]c12
cat: 0.0
--
molecule: COc1cc(C(C)C)c2c(c1)S(=O)(=O)N(COc1cc(=O)n3cccc(OCCN4CCCCC4)c3n1)C2=O
cat: 1.0
--
molecule: OC[C@H]1O[C@@](CO)(O[C@H]2O[C@H](CO)[C@@H](O)[C@H](O)[C@H]2O)[C@@H](O)[C@@H]1O
cat: 0.0
--
molecule: CCCC(CCC)C(=O)O
cat: 0.0
--
molecule: CCN(CC)C(=S)SSC(=S)N(CC)CC
cat: 0.0
--
molecule: CC(C)CCCCCCOC(=O)C1CCCCC1C(=O)OCCCCCCC(C)C (centres undefined)
cat: 0.0
